// provenance: patent US10363261B2

Each entry below carries its measured IC50, system: human ENO1 (Homo sapiens, UniProt P06733).
Sequence (P06733 whole entry): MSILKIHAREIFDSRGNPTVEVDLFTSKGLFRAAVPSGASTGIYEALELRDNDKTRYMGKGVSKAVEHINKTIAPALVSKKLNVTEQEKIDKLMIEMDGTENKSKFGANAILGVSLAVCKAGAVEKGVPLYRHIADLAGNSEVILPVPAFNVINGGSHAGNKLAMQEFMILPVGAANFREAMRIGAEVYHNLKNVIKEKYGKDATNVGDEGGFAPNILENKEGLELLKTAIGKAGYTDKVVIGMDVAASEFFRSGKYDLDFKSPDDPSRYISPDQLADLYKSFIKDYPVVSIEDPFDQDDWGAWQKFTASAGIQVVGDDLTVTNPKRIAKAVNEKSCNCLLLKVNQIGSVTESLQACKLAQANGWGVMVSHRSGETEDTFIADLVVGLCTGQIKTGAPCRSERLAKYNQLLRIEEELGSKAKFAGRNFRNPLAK

Compound: O=C1C(P(=O)(O)O)CCN1O (stereo not drawn)
IC50: ~2000 nM

For every item in the list below, what is its measured IC50?
1. O=C1C(P(=O)(O)O)CC(O)N1O (racemic)
2. O=C(CP(=O)(O)O)NO [PhAH, phosphonoacetohydroxamate]

1. ~20 nM
2. ~20 nM

---

Protocol Notes: physchem
Measured Attribute: half-life at 1.5 mM (h)
Give bare numbers, in h.

Quick check: half-life at 1.5 mM of CC(C)(C)C(=O)OCOP(=O)(OCOC(=O)C(C)(C)C)C1CCCN(O)C1=O (stereo not shown) ?
36
